Attribute: viability at 28.5 h, 10 µM
Assay: in vitro
Settings: human, hela cells, % viability
I'd appreciate it if you included the unit after the number.

Example cases with answers are listed next.
# compound, viability at 28.5 h, 10 µM
data = [
    ("Cc1cccc(N2CCN(CCCOc3ccc(F)c(F)c3)CC2)n1 [CBK025158C]", "106%"),
    ("CC(C)C12CN3CC(C(C)C)(CN(C1)C3c1ccc3c(c1)OCO3)C2=O (stereo not drawn)", "100%"),
    ("O=C(CSc1cccs1)Nc1nccs1", "88.7%"),
    ("O=C1CCC(=O)N1CCOc1nccnc1N1CCN(CC2CCCCC2)CC1", "88.9%"),
    ("COCC1CCCN1C(=O)c1cnn2c(C)c(Cc3ccc(OC)cc3)c(C)nc12 (stereo not drawn)", "107%"),
]

Here is another compound to look at.
Return reported viability at 28.5 h, 10 µM. Input compound: CCc1ccc(CNC(=O)Cn2cnc(-c3ccc(CN4CCC(C)CC4)cc3)c2)cc1 [CBK158710T]
100%
